Below, each entry is listed alongside its reported Ki.
# experimental.target: D(2) dopamine receptor (Rattus norvegicus, UniProt P61169)
# Sequence (P61169 whole entry): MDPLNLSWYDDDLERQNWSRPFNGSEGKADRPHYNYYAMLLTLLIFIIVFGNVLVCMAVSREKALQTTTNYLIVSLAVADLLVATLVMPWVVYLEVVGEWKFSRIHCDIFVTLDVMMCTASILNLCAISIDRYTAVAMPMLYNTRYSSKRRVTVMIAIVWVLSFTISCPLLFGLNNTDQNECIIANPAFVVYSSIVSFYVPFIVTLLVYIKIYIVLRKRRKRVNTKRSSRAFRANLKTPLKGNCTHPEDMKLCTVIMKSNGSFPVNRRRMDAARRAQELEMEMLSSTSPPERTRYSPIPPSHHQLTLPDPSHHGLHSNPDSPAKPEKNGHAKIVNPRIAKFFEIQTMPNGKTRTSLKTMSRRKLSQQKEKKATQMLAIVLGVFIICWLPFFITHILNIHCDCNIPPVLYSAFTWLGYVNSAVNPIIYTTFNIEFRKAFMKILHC
# assay.remarks: Binding affinity against Dopamine receptor D2 from rat brain, using [3H](-)-sulpiride as radioligand.

>  <sample.smiles>
FCCCN(CCc1ccc(Cl)c(Cl)c1)CCN1CCCC1

>  <Ki>
3.11 µM

$$$$
>  <sample.smiles>
CCCN1CCN(CCc2ccc(Cl)c(Cl)c2)CC1

>  <Ki>
2.9 µM

$$$$
>  <sample.smiles>
CN(CCc1cc(Cl)c(Cl)cc1I)CCN1CCCC1

>  <Ki>
1.31 µM

$$$$

* * *

# experimental.target: UniProt P61169
# assay.remarks: Binding affinity against dopamine receptor D2 from rat brain, using [3H](-)-sulpiride as radioligand.
pKi: −log10 of the molar value.
Below, each entry is listed alongside its reported pKi.
outcome.measure: pKi

>  <molecule>
FCCCN1CCN(CCc2ccc(Cl)c(Cl)c2)CC1

>  <result.value>
4.92

$$$$
>  <molecule>
CCCCCN1CC[C@@]2(C)c3cc(O)ccc3CC1[C@H]2C (single isomer, unassigned; (+))

>  <result.value>
5.60

$$$$
